Overview of reported pEC50 across a group of binders:
system.tested: T1, monkey MSLN on HEK293T-monkey MSLN recombinant cells (monkey)
T1 construct: Full-length precursor as transfected; processing on the cell is not described; also called HEK293-monkey MSLN
T1 chain: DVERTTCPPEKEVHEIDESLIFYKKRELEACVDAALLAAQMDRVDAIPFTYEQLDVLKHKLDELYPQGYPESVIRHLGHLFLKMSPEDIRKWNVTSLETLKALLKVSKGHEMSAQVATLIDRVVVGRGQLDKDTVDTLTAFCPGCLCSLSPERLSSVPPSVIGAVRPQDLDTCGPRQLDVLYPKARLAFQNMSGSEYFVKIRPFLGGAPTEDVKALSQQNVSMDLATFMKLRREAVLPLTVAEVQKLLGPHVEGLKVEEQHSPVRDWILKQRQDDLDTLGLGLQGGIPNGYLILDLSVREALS
assay.details: FACS, HEK293T-monkey MSLN cells
Note on pEC50: it is the negative log10 of concentration, concentration in mol/L.

Below, 2 binders whose answers are already recorded.
binder	result.number
F7.44.20-H16 (scFv, not shown: small tags and cut ends, also called S009-F7.44.20 humanized antibody VH2a + VL4) scFv: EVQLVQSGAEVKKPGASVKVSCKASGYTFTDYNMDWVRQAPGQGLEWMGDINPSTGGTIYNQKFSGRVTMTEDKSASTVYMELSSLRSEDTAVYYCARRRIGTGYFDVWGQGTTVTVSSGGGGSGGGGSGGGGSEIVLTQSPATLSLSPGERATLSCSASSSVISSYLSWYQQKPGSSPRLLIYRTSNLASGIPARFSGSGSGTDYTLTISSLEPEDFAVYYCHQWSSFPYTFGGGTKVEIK	7.91
F7.44.20-H1 (scFv, not shown: small tags and cut ends, also called S009-F7.44.20 humanized antibody VH1 + VL1) scFv: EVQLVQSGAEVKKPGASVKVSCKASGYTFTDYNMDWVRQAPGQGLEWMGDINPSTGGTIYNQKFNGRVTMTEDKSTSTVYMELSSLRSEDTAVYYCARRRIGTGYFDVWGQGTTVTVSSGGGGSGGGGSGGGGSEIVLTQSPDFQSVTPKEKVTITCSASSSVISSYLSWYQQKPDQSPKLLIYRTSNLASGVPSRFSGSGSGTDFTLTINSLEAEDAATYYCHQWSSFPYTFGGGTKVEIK	8.22

Moving on to the next binder.
input: Requested field: pEC50. Item: F7.44.20-H8 (scFv, not shown: small tags and cut ends, also called S009-F7.44.20 humanized antibody VH1a + VL4) scFv: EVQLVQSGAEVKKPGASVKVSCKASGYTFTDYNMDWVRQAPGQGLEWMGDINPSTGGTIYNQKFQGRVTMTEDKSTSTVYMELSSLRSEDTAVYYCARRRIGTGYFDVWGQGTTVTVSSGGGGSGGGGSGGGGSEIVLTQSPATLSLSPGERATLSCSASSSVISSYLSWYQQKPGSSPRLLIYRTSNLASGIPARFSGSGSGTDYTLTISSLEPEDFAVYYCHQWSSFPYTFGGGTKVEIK
output: 8.15
